Collected GI50 values appear next to each entry.
- Tested on: MDA-MB-231
- protocol-description: NCI tumour cell line growth inhibition, 48 h
Activity calls are given as the source filed them. Cut-off read from the data, not from the text of the source: active = GI50 up to about 1.1 µM and inactive = higher.

{"molecule": "CC(=O)c1c(N=[N+]=[N-])c2cccc3c2n(c1=O)CCC3", "GI50": "13.9 µM (inactive)"}
{"molecule": "CC1(C)C(=O)/C=C\\C(=O)C(C)(C)C2=CC=C(O2)C(C)(C)C(=O)C(Br)C(Br)C(=O)C(C)(C)C2=CC=C1O2 (stereo unspecified)", "GI50": "27.4 µM (inactive)"}
{"molecule": "CCOC(=O)c1ccc(C(=O)/C(C#N)=C2\\CCCN2C)[nH]1", "GI50": "> 100 µM (inactive)"}
{"molecule": "Cc1cc2nc3c(C)c4ccccc4c(C)n3c2cc1C", "GI50": "1.62 µM (inactive)"}
{"molecule": "CC(C)CCCC(C)[C@H]1CC[C@H]2N/C(=N/Cc3ccccc3)CCC[C@]12C (stereo partly specified)", "GI50": "2.05 µM (inactive)"}
{"molecule": "COc1cc(Cc2nccc3cc(OC)c(OC)cc23)c(/N=N/N(C)C)cc1OC", "GI50": "14.4 µM (inactive)"}

State the recorded GI50 for this entry: O=C1CC(CC(O)C(O)C(O)CO)CC(=O)N1 (stereo unspecified) > 100 µM (inactive)

Next up: [C-]#[N+]C(=C\c1ccc(O)cc1)/C(=C/c1ccc(O)cc1)[N+]#[C-] 2.74 µM (inactive)

Next up: C=C(Cl)C(C)(Cl)CCC(Br)C(C)(C)Cl (stereo unspecified) 15.2 µM (inactive)

Next up: CC(=O)Nn1cnc(C(=N)C#N)c1N > 100 µM (inactive)

Next up: COc1ccc2c(c1C)C(=O)C(O)(CC=C(C)C)O2 (stereo unspecified) > 100 µM (inactive)

---

- Test system: SK-OV-3
- protocol-description: NCI tumour cell line growth inhibition, 48 h
Active and inactive are the calls of the source. Rule as the data show it: active = GI50 up to about 1.1 µM and inactive = higher.
measure: GI50

Here's what some known entries look like.
{"compound": "CCOc1ccc(C2=NN(CC)C(=O)C(C3C(=O)N(c4ccccc4)N=C3C)C2)cc1 (stereo not given)", "study-system": "SK-OV-3", "observed-result": "> 100 µM (inactive)"}
{"compound": "COc1ccc2c(c1)CC[C@@H]1[C@@H]2CC[C@]2(C)C(=O)/C(=C/c3ccncc3)C[C@@H]12", "study-system": "SK-OV-3", "observed-result": "32.9 µM (inactive)"}
{"compound": "CC[C@]1(c2ccc3c(c2)OCO3)C=[N+]([O-])O[C@H](OC2CCCC2(c2ccccc2)c2ccccc2)[C@@H]1OC(C)=O (stereo not given in full)", "study-system": "SK-OV-3", "observed-result": "3.01 µM (inactive)"}

State the recorded GI50 for this entry: COc1cc(/N=N/N(C)C)c(C(C)c2c3cc(OC)c(OC)cc3cc[n+]2C)cc1OC (stereo not given) > 100 µM (inactive)

Next up: COc1cc(Nc2nnc3n2S(=O)(=O)c2cc(C)c(Cl)cc2S3)cc(OC)c1 14.2 µM (inactive)

---

- Tested on: UACC-62
- protocol-description: NCI tumour cell line growth inhibition, 48 h
Activity calls are given as the source filed them. No stated cut-off is given here; in the data, active = GI50 up to about 1.1 µM and inactive = higher.
Write down one outcome, taken from 1 (active), 0 (inactive)

The examples below pair each entry with its known result.
{"compound": "COc1ccc([N+](=O)[O-])cc1[I+]c1cc([N+](=O)[O-])ccc1OC", "label-value": 0}
{"compound": "CC1(C)Cc2ccccc2C(C)(Cl)C(=O)N1 (centres undefined)", "label-value": 0}
{"compound": "COc1ccccc1N1C(Cl)C(=O)C1c1c[nH]c2ccccc12 (centres undefined)", "label-value": 0}

Proceed to the following item.
Query: recorded result category for Cc1c2oc3c(C)cc(F)c(C(=O)NC4C(=O)NC(C(C)C)C(=O)N5CCCC5C(=O)N(C)CC(=O)N(C)C(C(C)C)C(=O)OC4C)c3nc-2c(C(=O)NC2C(=O)NC(C(C)C)C(=O)N3CCCC3C(=O)N(C)CC(=O)N(C)C(C(C)C)C(=O)OC2C)c(N)c1=O (centres undefined) in this test 1

---

- Tested on: SNB-19
- protocol-description: NCI tumour cell line growth inhibition, 48 h
Active and inactive are the calls of the source. Rule as the data show it: active = GI50 up to about 1.1 µM and inactive = higher.
Write down one outcome, taken from active, inactive

{"molecule": "CCOc1cc(NC(C)=O)ccc1C(=O)NN1C(=O)/C(=C/c2ccco2)N=C1c1ccccc1", "study-system": "SNB-19", "label-value": "inactive"}
{"molecule": "C[C@@]12C[C@@H](c3ccccc3O1)N1Cc3ccccc3CSC1=N2", "study-system": "SNB-19", "label-value": "inactive"}

Query: recorded result category for O=C(Nc1ccc([N+](=O)[O-])cc1[N+](=O)[O-])C(=O)C(C(=O)c1ccc2ccccc2c1)C1OC(=O)c2ccccc21 (centres undefined) in this test inactive

Next up: COc1cc2c(cc1OC)C(C#N)(Cc1ccccc1)N(C(=O)c1ccccc1)C=C2 (centres undefined) inactive

Next up: CCOC(=O)Nc1ccc(S(=O)(=O)I)cc1.CCOC(=O)Nc1ccc(S(=O)(=O)I)cc1.CNC(=O)N=O.NC(=O)OCCCl inactive

Next up: COc1ccc2c(c1[N+](=O)[O-])CC[C@@H]1[C@@H]2CC[C@]2(C)C(=O)CC[C@@H]12 inactive

Next up: Cc1nc(C)c(N2CCN(S(N)(=O)=O)CC2)c(O)n1 inactive

Next up: C/C=C(/C)C(=O)O[C@H]1C[C@@H]2[C@@H](O)c3occ(C)c3C[C@]2(C)[C@@H](C)C1 inactive

Next up: CC[C@H](C)C1=C(OC(C)=O)[N@+]2([O-])Oc3ccc(-c4c(OC(C)=O)c(OC(C)=O)c(-c5ccc(OC(C)=O)cc5)c(OC(C)=O)c4OC(C)=O)cc3O[C@]2([C@@H](C)CC)C(=O)N1OC(C)=O inactive

Next up: COc1ccc(/C(=N/OCCCC(=O)O)c2cccs2)cc1 inactive

Next up: Cn1cc(-c2cnc(-c3cn(C)c4ccccc34)cn2)c2ccccc21 inactive

---

Collected GI50 values appear next to each entry.
- System: RXF 393
- protocol-description: NCI tumour cell line growth inhibition, 48 h
Activity calls are given as the source filed them. No stated cut-off is given here; in the data, active = GI50 up to about 1.1 µM and inactive = higher.

Here's what some known entries look like.
{"compound": "CC(C)C1CN(C(=O)OCc2ccccc2)C2N1C(=O)C2(C)OCc1ccccc1 (centres undefined)", "GI50": "21.4 µM (inactive)"}
{"compound": "O=S(=O)(O)C(c1ccccc1)C(O)c1ccccc1 (centres undefined)", "GI50": "> 100 µM (inactive)"}
{"compound": "Cn1c(=O)ccc2c(=O)c3ccccc3oc21", "GI50": "64.9 µM (inactive)"}

State the recorded GI50 for this entry: CC(=O)O[C@H]1[C@@H](OC(C)=O)C(C)(C)/C=C/[C@H](C)C(=O)[C@@]2(OC(C)=O)C[C@@](C)(OC(C)=O)[C@H](OC(C)=O)[C@@H]2[C@H]2OC(=O)CC[C@@]2(OC(=O)c2ccccc2)[C@@H]1OCC(C)C 46.7 µM (inactive)

Next up: COc1ccc(/C=C/c2ccnc3ccccc23)cc1OC 13.1 µM (inactive)

Next up: COc1cc(Nc2nnc3n2S(=O)(=O)c2cc(C)c(Cl)cc2S3)cc(OC)c1 10.5 µM (inactive)

Next up: C=CCNC(=O)ON1C(=O)CCC1=O > 100 µM (inactive)

Next up: O=C(c1ccc(Cl)cc1)N1N=C(c2ccc(Cl)cc2)CC1(O)c1cc(F)c(Cl)cc1Cl (centres undefined) 23.9 µM (inactive)

Next up: O=c1c2ccccc2sc2c(CO)ccc(NCCN3CCCCC3)c12 2.39 µM (inactive)

---

- Test system: RPMI-8226
- protocol-description: NCI tumour cell line growth inhibition, 48 h
Active and inactive are the calls of the source. No stated cut-off is given here; in the data, active = GI50 up to about 1.1 µM and inactive = higher.
measure: GI50

Here's what some known entries look like.
{"molecule": "Cc1nc2c(n1CCCl)C(=O)c1ccccc1C2=O", "GI50": "58.6 µM (inactive)"}
{"molecule": "COC1=C(OC)C23CCc4ccc(OC)c(O)c4C2(CCN3)CC1=O (stereo not drawn)", "GI50": "> 100 µM (inactive)"}
{"molecule": "COc1ccc2c(c1O)[C@@]13CCCC=C1[C@@H](C2)N(C)CC3", "GI50": "29.3 µM (inactive)"}
{"molecule": "CCN(CC)C(=S)SS(=O)(=O)c1ccc(N)cc1", "GI50": "22.8 µM (inactive)"}

State the recorded GI50 for this entry: CC(C)CCCC(C)[C@H]1CC[C@H]2N/C(=N/Cc3ccccc3)CCC[C@]12C (stereo partly drawn) 1.59 µM (inactive)

Next up: C/C=C/C=C/C1=NN(c2cccc(S(=O)(=O)O)c2)C2(C1)SCC(=O)N2c1nc2ccccc2s1 (stereo not drawn) 29.9 µM (inactive)

Next up: COC1(OC)CC2C(=O)N(Cc3ccccc3)C1C=C2S(=O)(=O)c1ccccc1 (stereo not drawn) 21 µM (inactive)

Next up: CC(C)c1ccc(C2NC(S)=NC3=C2c2ccccc2C3=O)cc1 (stereo not drawn) 23.2 µM (inactive)

Next up: COc1cc(-c2c(C#N)c(N)c(C#N)c3c2COc2ccccc2-3)cc(OC)c1OC > 22.9 µM (inactive)

Next up: O=C(Nc1ccc([N+](=O)[O-])cc1[N+](=O)[O-])C(=O)C(C(=O)c1ccc2ccccc2c1)C1OC(=O)c2ccccc21 (stereo not drawn) 9.44 µM (inactive)

Next up: O=C1C(=CNC(=S)c2ccccc2)C(=O)c2ccccc21 25.2 µM (inactive)

Next up: N#C/C(=C\c1ccc2[nH]ccc2c1)C(=O)NCCCCNC(=O)/C(C#N)=C/c1ccc2[nH]ccc2c1 > 10 µM (inactive)
